Test system: Plasma
Test: Drug level in Sprague-Dawley rat plasma at 1 mg/kg, iv assessed as 2-methoxyestradiol level after 60 mins
Type: ADME, organism-based
Set-up: dose 1 mg/kg, route intravenous
Details: in vivo, 1 h
metric.name: Cp (ng/mL)
Write the answer as a number in ng/mL, unit excluded.

[ask] Data request, read-out Cp, for COc1cc2c(cc1O)CC[C@@H]1[C@@H]2CC[C@]2(C)[C@@H](OP(=O)(O)O)CC[C@@H]12
[reply] 5

[ask] Data request, read-out Cp, for COc1cc2c(cc1O)CC[C@@H]1[C@@H]2CC[C@]2(C)[C@@H](O)CC[C@@H]12
[reply] 11.3

[ask] Data request, read-out Cp, for COc1cc2c(cc1OP(=O)([O-])O)CC[C@@H]1[C@@H]2CC[C@]2(C)[C@@H](O)CC[C@@H]12.[Na+]
[reply] 5.3

---

Tested on: SF-539
Assay: Cytotoxicity against human SF539 cells
Assay type: functional
For each record, write down the corresponding GI50.
Write the answer as a number in µM, unit excluded.

[ask] Data request, read-out GI50, for CCOP(=O)(OCC)O[C@H]1CC[C@H]2[C@@H]3CCc4cc(O)c(OC)cc4[C@H]3CC[C@]12C
[reply] 19.5

[ask] Data request, read-out GI50, for COc1cc2c(cc1O)CC[C@@H]1[C@@H]2CC[C@]2(C)[C@@H](O)CC[C@@H]12
[reply] 0.32

[ask] Data request, read-out GI50, for COc1cc2c(cc1O)CC[C@@H]1[C@@H]2CC[C@]2(C)[C@@H](OP(=O)(O)O)CC[C@@H]12
[reply] 75.9

[ask] Data request, read-out GI50, for COc1cc2c(cc1OP(=O)([O-])O)CC[C@@H]1[C@@H]2CC[C@]2(C)[C@@H](O)CC[C@@H]12.[Na+]
[reply] 0.66

[ask] Data request, read-out GI50, for CCOP(=O)(OCC)Oc1cc2c(cc1OC)[C@H]1CC[C@]3(C)[C@@H](OP(=O)(OCC)OCC)CC[C@H]3[C@@H]1CC2
[reply] 19.5

---

For each record, write down the corresponding Cp.
System: Plasma
Test: Drug level in Sprague-Dawley rat plasma at 1 mg/kg, iv assessed as 2-methoxyestradiol level after 15 mins
Assay type: ADME, organism-based
Parameters: dose 1 mg/kg, route intravenous
Details: in vivo, 0.25 h
Write the answer as a number in ng/mL, unit excluded.

[ask] Data request, read-out Cp, for COc1cc2c(cc1O)CC[C@@H]1[C@@H]2CC[C@]2(C)[C@@H](OP(=O)(O)O)CC[C@@H]12
[reply] 15

[ask] Data request, read-out Cp, for COc1cc2c(cc1O)CC[C@@H]1[C@@H]2CC[C@]2(C)[C@@H](O)CC[C@@H]12
[reply] 168

[ask] Data request, read-out Cp, for COc1cc2c(cc1OP(=O)([O-])O)CC[C@@H]1[C@@H]2CC[C@]2(C)[C@@H](O)CC[C@@H]12.[Na+]
[reply] 57.3

---

Test system: UACC-62
Assay: Cytotoxicity against human UACC62 cells
Type: functional
For each record, write down the corresponding GI50.
Write the answer as a number in µM, unit excluded.

[ask] Data request, read-out GI50, for COc1cc2c(cc1OP(=O)([O-])O)CC[C@@H]1[C@@H]2CC[C@]2(C)[C@@H](O)CC[C@@H]12.[Na+]
[reply] 1.32

[ask] Data request, read-out GI50, for COc1cc2c(cc1O)CC[C@@H]1[C@@H]2CC[C@]2(C)[C@@H](O)CC[C@@H]12
[reply] 0.36

[ask] Data request, read-out GI50, for CCOP(=O)(OCC)O[C@H]1CC[C@H]2[C@@H]3CCc4cc(O)c(OC)cc4[C@H]3CC[C@]12C
[reply] 14.4

[ask] Data request, read-out GI50, for COc1cc2c(cc1O)CC[C@@H]1[C@@H]2CC[C@]2(C)[C@@H](OP(=O)(O)O)CC[C@@H]12
[reply] 38

[ask] Data request, read-out GI50, for CCOP(=O)(OCC)Oc1cc2c(cc1OC)[C@H]1CC[C@]3(C)[C@@H](OP(=O)(OCC)OCC)CC[C@H]3[C@@H]1CC2
[reply] 11.5
